# measurementDescription: Percent conversion of compound in human lung S9 fraction after 60 min of administration
# Type: ADME
# details: read-out: Conversion
recordedEndpoint: metabolised at 1 h (%)
# output: bare number, implied unit %

Reference set, count: 2
CC(C)(c1nc(-c2ccccc2)c(C(=O)OCCO)s1)c1c(Cl)cc(-n2ncc(=O)[nH]c2=O)cc1Cl | 0
CC(C)(c1nc(-c2ccccc2)c(C(=O)OCC2CC2)s1)c1c(Cl)cc(-n2ncc(=O)[nH]c2=O)cc1Cl | 27

metabolised at 1 h reported for this molecule "CC(C)(c1nc(-c2ccccc2)c(C(=O)O)s1)c1c(Cl)cc(-n2ncc(=O)[nH]c2=O)cc1Cl" : 0

metabolised at 1 h reported for this molecule "CC(C)(c1nc(-c2ccccc2)c(C(=O)OCCCO)s1)c1c(Cl)cc(-n2ncc(=O)[nH]c2=O)cc1Cl" : 8

====

# System: PBL
# measurementDescription: Percent inhibition of interleukin-5 production in human whole blood assay after 10e-6 M treatment
# Format: functional
# Inhibition annotations
# output: bare number, implied unit %

CCCOC(=O)c1sc(C(C)(C)c2c(Cl)cc(-n3ncc(=O)[nH]c3=O)cc2Cl)nc1-c1ccccc1 | 96

Inhibition reported for this molecule "CC(C)OC(=O)c1sc(C(C)(C)c2c(Cl)cc(-n3ncc(=O)[nH]c3=O)cc2Cl)nc1-c1ccccc1" : 94

====

# metabolised at 1 h annotations
# measurementDescription: Percent conversion of compound in human liver fraction after 60 min of administration
# Format: ADME, tissue-based
# details: read-out: Conversion
# output: bare number, implied unit %

CC(C)(c1nc(-c2ccccc2)c(C(=O)OCCO)s1)c1c(Cl)cc(-n2ncc(=O)[nH]c2=O)cc1Cl | 1

metabolised at 1 h reported for this molecule "CCCOC(=O)c1sc(C(C)(C)c2c(Cl)cc(-n3ncc(=O)[nH]c3=O)cc2Cl)nc1-c1ccccc1" : 68

metabolised at 1 h reported for this molecule "COC(=O)c1sc(C(C)(C)c2c(Cl)cc(-n3ncc(=O)[nH]c3=O)cc2Cl)nc1-c1ccccc1" : 49

====

# measurementDescription: Percent conversion of compound in human liver fraction after 60 min of administration
# Assay type: ADME, tissue-based
# details: read-out: Conversion
recordedEndpoint: metabolised at 1 h (%)
# output: bare number, implied unit %

CC(C)(c1nc(-c2ccccc2)c(C(=O)O)s1)c1c(Cl)cc(-n2ncc(=O)[nH]c2=O)cc1Cl | 0
CC(C)(c1nc(-c2ccccc2)c(C(=O)OCC2CC2)s1)c1c(Cl)cc(-n2ncc(=O)[nH]c2=O)cc1Cl | 87
CC(C)=CCOC(=O)c1sc(C(C)(C)c2c(Cl)cc(-n3ncc(=O)[nH]c3=O)cc2Cl)nc1-c1ccccc1 | 65

Kindly review the next compound as well.
metabolised at 1 h reported for this compound "CC(=O)COC(=O)c1sc(C(C)(C)c2c(Cl)cc(-n3ncc(=O)[nH]c3=O)cc2Cl)nc1-c1ccccc1" : 64

====

# metabolised at 1 h annotations
# measurementDescription: Percent conversion of compound in human liver fraction after 60 min of administration
# Format: ADME, tissue-based
# details: read-out: Conversion
Please give the number followed by its unit.

Reference set, count: 3
CC(C)(C)OC(=O)c1sc(C(C)(C)c2c(Cl)cc(-n3ncc(=O)[nH]c3=O)cc2Cl)nc1-c1ccccc1 | 7%
CCOC(=O)c1sc(C(C)(C)c2c(Cl)cc(-n3ncc(=O)[nH]c3=O)cc2Cl)nc1-c1ccccc1 | 29%
CCCCOC(=O)c1sc(C(C)(C)c2c(Cl)cc(-n3ncc(=O)[nH]c3=O)cc2Cl)nc1-c1ccccc1 | 86%

Kindly review the next compound as well.
metabolised at 1 h reported for this compound "CC(C)(c1nc(-c2ccccc2)c(C(=O)OCC(F)(F)F)s1)c1c(Cl)cc(-n2ncc(=O)[nH]c2=O)cc1Cl" : 38%
